// reported TGI per item
System: U251 CNS
Experiment: NCI tumour cell line growth inhibition, 48 h
Answer with a number only, understood to be in µM.

{"molecule": "CCCCCCCCCCCCCCCCNCC(O)CN (stereo not given)", "target.system": "U251 CNS", "numeric.result": 6.26}

Value lookup for TGI; key = `O=c1cc(-c2ccccc2)oc2ccc(OC/C(=N/O)c3ccc(F)cc3)cc12`
43.7

---

System: MALME-3M melanoma
Test: NCI tumour cell line growth inhibition, 48 h
Where a SMILES comes first, the peptide text is derived from it. The star is where a group is joined. Boc = CC(C)(C)OC(=O)*
test.readout: TGI

Solved entries (count: 5):
{"molecule": "CC(=Nc1ccccc1)C1=C(O)C(Cc2cccc(F)c2)NC1=O (stereo unspecified)", "TGI": "> 100 µM"}
{"molecule": "CSCCC(NC(=O)C(CC(C)C)NC(=O)C1CCCN1C(=O)C(Cc1ccccc1)NC(=O)C(Cc1ccccc1)NC(=O)C(CCC(=O)O)NC(=O)OC(C)(C)C)C(N)=O (stereo unspecified) (Boc-EFFPLM-NH2; configuration not given here)", "TGI": "> 100 µM"}
{"molecule": "C/C(=N/NC(=S)N(C)C)c1ccccc1O", "TGI": "> 76.1 µM"}
{"molecule": "Nc1ncnc2c1sc(=S)n2-c1ccccc1", "TGI": "> 100 µM"}
{"molecule": "O=C(N/N=C\\c1cccs1)c1ccncc1", "TGI": "> 100 µM"}

--- query ---
Value lookup for TGI; key = `O=c1/c(=C/c2c(O)ccc3ccccc23)sc2nc3ccccc3n12`
> 100 µM

---

Test system: RPMI-8226 leukemia
Assay: NCI tumour cell line growth inhibition, 48 h
// reported TGI per item

Solved entries (count: 3):
{"compound": "CCOc1cc(C(=O)O)c2c(ccc3ccc(OC)c(OC)c32)c1OC", "result": "> 100 µM"}
{"compound": "Cn1c(=O)c2c(nc3n2CCC(=O)N3CCCCl)n(C)c1=O", "result": "> 100 µM"}
{"compound": "COc1cc(O)c(C(=O)CC(C)=O)c(OC)c1", "result": "> 100 µM"}

--- query ---
Requested read-out TGI, target or system RPMI-8226 leukemia, entry CC(CN1CC(=O)NC(=O)C1)N1CC(=O)NC(=O)C1 (centres undefined)
> 750 µM

---

// reported TGI per item
System: HOP-62 NSCLC
Assay: NCI tumour cell line growth inhibition, 48 h
Where a SMILES comes first, the peptide text is derived from it. The star is where a group is joined. Boc = CC(C)(C)OC(=O)*

{"compound": "O=C(/C=C/c1ccc2c(c1)OCO2)NCCc1ccco1", "result": "> 100 µM"}
{"compound": "CCOc1cc(C(=O)O)c2c(ccc3ccc(OC)c(OC)c32)c1OC", "result": "> 100 µM"}
{"compound": "Cn1cnc([N+](=O)[O-])c1Sc1nnnn1C", "result": "> 100 µM"}

Value lookup for TGI; key = `COc1ccc(OC)c(NC2=NCCO2)c1`
> 100 µM

Value lookup for TGI; key = `O=c1cc(-c2ccccc2)oc2ccc(OC/C(=N/O)c3ccc(F)cc3)cc12`
> 50 µM

Value lookup for TGI; key = `O=C1OC(c2ccccc2)(c2ccccc2)c2ccc3ccc(F)cc3c21`
> 100 µM

Value lookup for TGI; key = `O=c1/c(=C/c2c(O)ccc3ccccc23)sc2nc3ccccc3n12`
> 100 µM

Value lookup for TGI; key = `O=C(N/N=C\c1cccs1)c1ccncc1`
> 100 µM

Value lookup for TGI; key = Cc1cc(Br)cc(C)c1NC(=O)C(=O)C(C(=O)c1ccncc1)C1OC(=O)c2ccccc21 (centres undefined)
> 100 µM

Value lookup for TGI; key = `CCNc1cc2oc(=O)cc(C(F)(F)F)c2cc1C`
> 100 µM

Value lookup for TGI; key = `Cn1c(=O)c2c(nc3n2CCC(=O)N3CCCCl)n(C)c1=O`
> 100 µM

Value lookup for TGI; key = `Cc1nc(N)sc1C(=O)Nc1ncn[nH]1`
> 100 µM

Value lookup for TGI; key = CC(N)Cc1ccc(Cl)cc1 (centres undefined)
> 100 µM

Value lookup for TGI; key = C#CCN(N=O)C(=O)NCCCCC(NC(=O)OCc1ccccc1)C(=O)OCc1ccccc1 (centres undefined)
> 100 µM

Value lookup for TGI; key = CCN1C(=O)N(CC)C2C1NN=c1s/c(=C\c3cccs3)c(=O)n12 (centres undefined)
> 100 µM

Value lookup for TGI; key = CSCCC(NC(=O)C(CC(C)C)NC(=O)C1CCCN1C(=O)C(Cc1ccccc1)NC(=O)C(Cc1ccccc1)NC(=O)C(CCC(=O)O)NC(=O)OC(C)(C)C)C(N)=O (centres undefined) (Boc-EFFPLM-NH2; configuration not given here)
> 100 µM

Values from PubChem BioAssay (NCI)
